- MEASURED_ON: T1, Anti-PSMA Fab (006 PSMA Fab) (biotinylated (site not stated))
- T1 construct: Biotinylated PSMA Fab captured on neutravidin coated plates
- ASSAY_COMMENT: clonal phage ELISA on PSMA Fab pre-incubated with PSMA antigen as competitor, anti-M13 HRP detection
METRIC_NAME: Phage binding ELISA signal, Anti-PSMA Fab with PSMA antigen
Just the number, please, no unit attached.

IN: Would you mind telling me what Phage binding ELISA signal, Anti-PSMA Fab with PSMA antigen value was observed for GMPYCVPEWMCSWL [Phage-3010] ?
OUT: 0.0827

IN: Param item: STMMCVPPWMCMGF [Phage-3013]
OUT: 0.0775

IN: Param item: AELLCVPTWMCMGF [Phage-3014]
OUT: 0.0679

Now take the following binder into account.
IN: Would you mind telling me what Phage binding ELISA signal, Anti-PSMA Fab with PSMA antigen value was observed for PAEWCIPVWMCTGF [Phage-3015] ?
OUT: 0.0732
